Source listed as patent US11814435B2.

Target: T1, hBCMA (human BCMA) (Homo sapiens, UniProt Q02223)
T1 sequence (Q02223 1-184): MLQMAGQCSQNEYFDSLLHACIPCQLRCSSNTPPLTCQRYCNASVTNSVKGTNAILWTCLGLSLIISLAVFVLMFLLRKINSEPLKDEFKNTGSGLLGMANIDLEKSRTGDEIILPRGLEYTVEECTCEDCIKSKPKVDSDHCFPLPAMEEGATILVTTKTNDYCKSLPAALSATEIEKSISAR
Assay: Kinetics and affinity of hBCMA/human IgG interactions by SPR (Bio-Rad Proteon XPR36)
Assay type: binding
Conditions: huBCMA, 37° C.
Experimental: All experiments were performed on a Bio-Rad Proteon XPR36 surface Plasmon resonance biosensor (Bio-Rad, Hercules, Calif.). […] The analysis temperature for the hBCMA binding analysis was 37° C. or 25° C. in a running buffer of HBS-T+, supplemented with 1 mg/mL BSA. […] Immediately after the 50 nM hBCMA injection, dissociation was monitored for 2 hours. […]
reportedProperty: ka (1/Ms) huBCMA @ 37° C. (M⁻¹ s⁻¹)
Dear colleague, please return just the value in M⁻¹ s⁻¹, with no unit written.

Observe how each entry below is paired with its result.
Kindly note the recorded ka (1/Ms) huBCMA @ 37° C. for L3.PY/L1.FF/H2.LT: anti-BCMA antibody (antibody, V domains shown) VH: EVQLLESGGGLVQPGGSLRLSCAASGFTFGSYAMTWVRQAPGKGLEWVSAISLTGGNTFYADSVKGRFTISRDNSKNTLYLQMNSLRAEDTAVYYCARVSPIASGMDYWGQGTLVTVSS VL: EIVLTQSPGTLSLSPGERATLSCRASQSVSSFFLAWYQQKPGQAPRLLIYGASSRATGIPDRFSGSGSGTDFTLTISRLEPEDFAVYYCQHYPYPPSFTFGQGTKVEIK , which is 3.3e+06

Kindly note the recorded ka (1/Ms) huBCMA @ 37° C. for L3.PY/L1.PS/H3.AE: anti-BCMA antibody (antibody, V domains shown) VH: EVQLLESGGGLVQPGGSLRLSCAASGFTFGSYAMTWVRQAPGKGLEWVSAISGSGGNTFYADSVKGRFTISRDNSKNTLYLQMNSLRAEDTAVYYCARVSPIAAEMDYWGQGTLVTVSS VL: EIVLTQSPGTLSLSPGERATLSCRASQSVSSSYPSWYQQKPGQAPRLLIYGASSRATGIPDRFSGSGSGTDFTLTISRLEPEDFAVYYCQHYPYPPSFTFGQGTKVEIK , which is 3.14e+06

--- query ---
Kindly note the recorded ka (1/Ms) huBCMA @ 37° C. for L3.PY/H2.QL: anti-BCMA antibody (antibody, V domains shown) VH: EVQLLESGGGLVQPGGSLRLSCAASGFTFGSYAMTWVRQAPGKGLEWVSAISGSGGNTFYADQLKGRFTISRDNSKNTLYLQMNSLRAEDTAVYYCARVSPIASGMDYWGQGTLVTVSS VL: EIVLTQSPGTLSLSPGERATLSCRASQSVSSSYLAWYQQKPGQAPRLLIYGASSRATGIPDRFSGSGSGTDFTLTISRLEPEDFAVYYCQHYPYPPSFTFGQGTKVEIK , which is 2.64e+06
